# ASSAY_SYSTEM: human recombinant MC4R (CHO-K1/Gα15 stable cell line, GenScript) (human, UniProt P32245 1-332)
# Sequence (P32245 whole entry): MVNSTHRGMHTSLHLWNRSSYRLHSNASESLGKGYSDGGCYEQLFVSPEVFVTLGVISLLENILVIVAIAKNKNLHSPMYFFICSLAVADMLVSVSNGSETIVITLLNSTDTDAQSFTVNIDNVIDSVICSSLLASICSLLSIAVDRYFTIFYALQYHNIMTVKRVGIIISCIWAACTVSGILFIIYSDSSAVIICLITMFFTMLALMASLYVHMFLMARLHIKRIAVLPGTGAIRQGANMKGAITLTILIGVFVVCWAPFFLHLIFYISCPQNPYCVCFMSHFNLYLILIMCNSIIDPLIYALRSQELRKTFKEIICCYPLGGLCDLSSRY
# MEASUREMENT_DESCRIPTION: cell-based or functional assay
Positions of bridges follow the written chain, without caps; N, C: chain ends. Non-standard residues stand in square brackets, D forms with d. *: point of attachment. dPhe(4-CF3) = N[C@H](Cc1ccc(C(F)(F)F)cc1)C(=O)O; Benzoyl(3,5-(OH)2) = O=C(c1cc(O)cc(O)c1)*; Lys(N3) = [N-]=[N+]=NCCCC[C@H](N)C(=O)O; Nle = CCCC[C@H](N)C(=O)O; Pra = C#CC[C@H](N)C(=O)O
PROPERTY_MEASURED: MC4R IC50 (nM)

P: Ac-[Nle][Lys(N3)]H[dPhe(4-CF3)]RW[Pra]-NH2 (triazole 2-7) [KR-048]
Q: {Benzoyl(3,5-(OH)2)}-[Nle][Lys(N3)]H[dF]RW[Pra]-NH2 (triazole 2-7; not fully specified; printed as HyBA-Nle-[Lys(N3)-His-DPhe-Arg-Trp-Pra]-NH2) [KR-073]
**Query** Please tell me which of the two, P or Q , has the higher reported MC4R IC50 value. Lab log: write the label of the selected item as the result.
**Result** P
